# Assay text: Solubility in 3:1 PG:Hanks' buffer
# Type: physicochemical
# Experimental parameters: 3:1 PG:Hanks' buffer, 32 °C, aqueous with cosolvent or surfactant or cyclodextrin, thermodynamic from solid, Eq. 2; read-out: Solubility S used for theoretical dosing
Test readout: solubility at 24 h (mg/mL)
One number for each entry, in mg/mL.

I would be grateful if you could share the reported solubility at 24 h for O=C1CC[C@@]2(O)[C@H]3Cc4ccc(O)c5c4[C@@]2(CCN3CC2CC2)[C@H]1O5 [NTX Base, Naltrexone] .
300

Reference for the values: patent US20080008745A1
